TARGET SYSTEM: human cannabinoid receptor type 2 (Homo sapiens, UniProt P34972)
Construct: expressed in transfected cells; membrane preparation
Sequence (P34972 whole entry): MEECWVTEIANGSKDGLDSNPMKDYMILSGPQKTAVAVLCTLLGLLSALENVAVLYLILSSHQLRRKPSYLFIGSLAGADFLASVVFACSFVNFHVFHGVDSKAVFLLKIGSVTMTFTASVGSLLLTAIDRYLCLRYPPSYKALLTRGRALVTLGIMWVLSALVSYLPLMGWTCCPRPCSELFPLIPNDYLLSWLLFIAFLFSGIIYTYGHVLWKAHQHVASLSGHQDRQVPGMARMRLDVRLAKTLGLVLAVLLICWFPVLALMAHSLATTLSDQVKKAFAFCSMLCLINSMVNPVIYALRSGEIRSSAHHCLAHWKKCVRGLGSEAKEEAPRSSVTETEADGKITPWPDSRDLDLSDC
EXPERIMENTAL PROTOCOL: Human CB2 Radioligand Binding Assay
MEASUREMENT PARAMETERS: competition with [3H] CP-55,940; membranes from stably transfected CHO CB2 cells; read-out: CB2 Ligand Binding Asssay EC50
pEC50: −log10 of the molar value.
OBSERVABLE: pEC50

INSERT INTO measurements (molecule, target_system, observable, recorded_result) VALUES
  ('c1ccc2c(N3CCCCC3)nc(C3CCCCC3)nc2c1 [Example 34]', 'human cannabinoid receptor type 2 (Homo sapiens, UniProt P34972)', 'pEC50', '> 6.00'),
  ('CC(C)(C)c1ccc2nc(-c3ccccc3Cl)nc(N3CCSCC3)c2c1 [Example 169]', 'human cannabinoid receptor type 2 (Homo sapiens, UniProt P34972)', 'pEC50', '> 6.00'),
  ('CCCC(=O)N1CCN(c2nc(-c3ccccc3Cl)nc3ccccc23)CC1 [Example 95]', 'human cannabinoid receptor type 2 (Homo sapiens, UniProt P34972)', 'pEC50', '> 6.00'),
  ('Clc1ccc(-c2nc(N3CCCC3)c3cc(Cl)ccc3n2)cc1 [Example 209]', 'human cannabinoid receptor type 2 (Homo sapiens, UniProt P34972)', 'pEC50', '< 6.00'),
  ('Clc1ccccc1-c1nc(N2CCc3ccccc3C2)c2ccccc2n1 [Example 61]', 'human cannabinoid receptor type 2 (Homo sapiens, UniProt P34972)', 'pEC50', '> 6.00');

Kindly note the recorded pEC50 for CN1CCN(c2nc(CNS(=O)(=O)c3cccc4ccccc34)nc3ccccc23)CC1 [Example 5] , which is > 6.00

Kindly note the recorded pEC50 for CC(=O)N1CCN(c2nc(-c3ccc(C(C)(C)C)cc3)nc3ccc(Cl)cc23)CC1 [Example 277] , which is < 6.00

Kindly note the recorded pEC50 for Clc1ccc2nc(-c3ccccc3Cl)nc(N3CCCC3)c2c1 [Example 205] , which is > 6.00

Kindly note the recorded pEC50 for CC(C)C(=O)N1CCN(c2nc(-c3ccccc3Cl)nc3ccccc23)CC1 [Example 96] , which is > 6.00

Kindly note the recorded pEC50 for Clc1ccc2nc(C3CCCCC3)nc(N3CCCC3)c2c1 [Example 167] , which is > 6.00

Kindly note the recorded pEC50 for Clc1ccccc1-c1nc(N2CCCC2)c2ccccc2n1 [Example 53] , which is < 6.00

Kindly note the recorded pEC50 for CCN(CC)C(=O)c1ccc2nc(-c3ccccc3Cl)nc(N3CCN(C)CC3)c2c1 [Example 311] , which is > 6.00

Kindly note the recorded pEC50 for CNC(=O)N1CCN(c2nc(-c3ccccc3Cl)nc3ccccc23)CC1 [Example 88] , which is < 6.00

Kindly note the recorded pEC50 for CC(C)CNc1nc(-c2ccccc2)nc2ccccc12 [Example 51, N-iso-Butyl-2-phenylquinazolin-4-amine] , which is < 6.00

Kindly note the recorded pEC50 for CC1CCCCN1c1nc(-c2ccc(Cl)cc2)nc2ccccc12 (stereo not drawn) [Example 124] , which is < 6.00

Kindly note the recorded pEC50 for COc1ccc(Cc2nc(N3CCCCC3)c3ccccc3n2)cc1OC [Example 335] , which is < 6.00

Kindly note the recorded pEC50 for Clc1nccc(N2CCN(c3nc(-c4ccccc4Cl)nc4ccccc34)CC2)n1 [Example 197] , which is > 6.00

Kindly note the recorded pEC50 for CN(Cc1ccccc1)c1nc(C2CCCCC2)nc2ccccc12 [Example 39] , which is > 6.00

Data credit: patent US20090209536A1
